- TGT: Luciferin 4-monooxygenase (Photinus pyralis)
- Sequence (P08659 whole entry): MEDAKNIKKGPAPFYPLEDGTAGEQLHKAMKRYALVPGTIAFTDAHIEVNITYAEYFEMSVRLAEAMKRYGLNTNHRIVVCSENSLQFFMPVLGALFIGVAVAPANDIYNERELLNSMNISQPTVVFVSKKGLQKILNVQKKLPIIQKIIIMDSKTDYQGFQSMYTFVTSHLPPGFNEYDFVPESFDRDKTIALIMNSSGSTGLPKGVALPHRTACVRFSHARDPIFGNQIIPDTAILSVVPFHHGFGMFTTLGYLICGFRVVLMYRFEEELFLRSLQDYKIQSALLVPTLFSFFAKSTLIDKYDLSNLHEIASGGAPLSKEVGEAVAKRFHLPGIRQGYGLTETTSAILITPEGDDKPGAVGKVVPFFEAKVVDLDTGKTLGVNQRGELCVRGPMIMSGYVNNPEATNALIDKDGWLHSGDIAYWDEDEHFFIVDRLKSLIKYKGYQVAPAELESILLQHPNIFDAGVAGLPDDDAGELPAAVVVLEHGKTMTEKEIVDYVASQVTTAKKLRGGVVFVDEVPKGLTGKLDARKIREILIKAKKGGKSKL
- ASSAY_SUMMARY: firefly luciferase enzyme inhibitors, dose response, biochemical, luminescence (AID 1891)
Calls of active or inactive are those of the source. Rule as the data show it: actives have a measured EC50 and inactives only a lower limit.
So I've got a bunch of compounds here, and I need their EC50 values.

Can you look up the measured EC50 of Cc1ccc(C2=[N+]([O-])C3(CCCCC/C3=N\O)N(O)C2(C)C)o1 (stereo not drawn) for me? > 112 µM (not active)

Report EC50 for Cc1cc(/C=N/Nc2ncnc(N)c2[N+](=O)[O-])c(C)n1-c1ccccc1 please. 1.1 µM (active)

Please look up its EC50: COc1ccc(CCNC(=O)c2cc3c(=O)n4ccccc4nc3n(Cc3ccco3)c2=N)cc1OC > 112 µM (not active)

src = ChEMBL document CHEMBL1201862
